Test system: 282377-053-R-J1-PDC complex spheroid viability
procedure_text: Anticancer human tumor 282377-053-R-J1-PDC patient-derived colon adenocarcinoma cell line growth inhibition [RAS]
measurement_conditions: second compound 0.003 µM; first compound 0.00316 µM; stronger effect = lower value

molecule	viability, T/C
O=C(c1ccc(F)c(F)c1Nc1ccc(I)cc1F)N1CC(O)([C@@H]2CCCCN2)C1 + CCn1c(-c2cc(N3CCN(C)CC3)cnc2C(C)OC)c2c3cc(ccc31)-c1csc(n1)CC(NC(=O)C1CC1C)C(=O)N1CCCC(N1)C(=O)OCC(C)(C)C2	70.3%
CCN1CCN(Cc2ccc(Nc3ncc(F)c(-c4cc(F)c5nc(C)n(C(C)C)c5c4)n3)nc2)CC1 + CCn1c(-c2cccnc2C(C)OC)c2c3cc(ccc31)N1CCOC(CC(NC(=O)C(C(C)C)N(C)C(=O)C3(F)CCN(C(=O)C#CC(C)(C)N(C)C)CC3)C(=O)N3CCCC(N3)C(=O)OCC(C)(C)C2)C1	137%
C=CC(=O)N1CCN(c2nc(OCC3CCCN3C)nc3c(F)c(-c4nc(N)cc(C)c4C(F)(F)F)c(Cl)cc23)C(C)C1 (centres undefined) + CCn1c(-c2cccnc2C(C)OC)c2c3cc(ccc31)N1CCOC(CC(NC(=O)C(C(C)C)N(C)C(=O)C3(F)CCN(C(=O)C#CC(C)(C)N(C)C)CC3)C(=O)N3CCCC(N3)C(=O)OCC(C)(C)C2)C1	105%
C=CC(=O)N1CCN(c2nc(OCC3CCCN3C)nc3c(F)c(-c4nc(N)cc(C)c4C(F)(F)F)c(Cl)cc23)C(C)C1 (centres undefined) + CCn1c(-c2cc(N3CCN(C)CC3)cnc2C(C)OC)c2c3cc(ccc31)-c1csc(n1)CC(NC(=O)C1CC1C)C(=O)N1CCCC(N1)C(=O)OCC(C)(C)C2	108%

###

# viability, T/C values compiled below
System: 282377-053-R-J1-PDC complex spheroid viability
procedure_text: Anticancer human tumor 282377-053-R-J1-PDC cell line growth inhibition [RAS];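 further: spheroids exposed to agents for seven days before readout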;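 on viability, T/C: luminescence viability as percent of DMSO vehicle control wells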
measurement_conditions: second compound 1 µM; first compound 0.1 µM; stronger effect = lower value

compound	uom	viability, T/C
NC1c2ccccc2OC12CCN(c1cnc3c(N4CCCc5ncccc54)n[nH]c3n1)CC2 (centres undefined) + C=CC(=O)N1CCN(c2nc(OCC3CCCN3C)nc3c(F)c(-c4nc(N)cc(C)c4C(F)(F)F)c(Cl)cc23)C(C)C1	%	106
CC(=O)OC12COC1CC(O)C1(C)C(=O)C(O)C3=C(C)C(OC(=O)C(O)C(NC(=O)OC(C)(C)C)c4ccccc4)CC(O)(C(OC(=O)c4ccccc4)C21)C3(C)C (centres undefined) + C=CC(=O)N1CCN(c2nc(OCC3CCCN3C)nc3c(F)c(-c4nc(N)cc(C)c4C(F)(F)F)c(Cl)cc23)C(C)C1	%	19.3
C=CC(=O)Nc1cc(Nc2nccc(-c3cn(C)c4ccccc34)n2)c(OC)cc1N(C)CCN(C)C + C#Cc1c(F)ccc2cc(O)cc(-c3ncc4c(N5CC6CCC(C5)N6)nc(OCC56CCCN5CC(F)C6)nc4c3F)c12	%	108
C=CC(=O)N1CCN(c2nc(OCC3CCCN3C)nc3c(F)c(-c4nc(N)cc(C)c4C(F)(F)F)c(Cl)cc23)C(C)C1 (centres undefined) + C#Cc1c(F)ccc2cc(O)cc(-c3ncc4c(N5CC6CCC(C5)N6)nc(OCC56CCCN5CC(F)C6)nc4c3F)c12	%	90.6

###

# viability, T/C values compiled below
Tested on: 282377-053-R-J1-PDC complex spheroid viability
procedure_text: Anticancer human tumor 282377-053-R-J1-PDC cell line growth inhibition [RAS];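 further: spheroids exposed to agents for seven days before readout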;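 on viability, T/C: luminescence viability as percent of DMSO vehicle control wells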
measurement_conditions: second compound 0.03 µM; first compound 0.0316 µM; stronger effect = lower value
quantity_kind: viability, T/C (%)

molecule	recorded_result
C=CC(=O)N1CCN(c2nc(OCC3CCCN3C)nc3c(F)c(-c4nc(N)cc(C)c4C(F)(F)F)c(Cl)cc23)C(C)C1 (stereo not drawn) + CCn1c(-c2cccnc2C(C)OC)c2c3cc(ccc31)N1CCOC(CC(NC(=O)C(C(C)C)N(C)C(=O)C3(F)CCN(C(=O)C#CC(C)(C)N(C)C)CC3)C(=O)N3CCCC(N3)C(=O)OCC(C)(C)C2)C1	86.2
C=CC(=O)Nc1cc(Nc2nccc(-c3cn(C)c4ccccc34)n2)c(OC)cc1N(C)CCN(C)C + CCn1c(-c2cc(N3CCN(C)CC3)cnc2C(C)OC)c2c3cc(ccc31)-c1csc(n1)CC(NC(=O)C1CC1C)C(=O)N1CCCC(N1)C(=O)OCC(C)(C)C2	116
CC(C)n1nc(-c2ccc3oc(N)nc3c2)c2c(N)ncnc21 + CCn1c(-c2cccnc2C(C)OC)c2c3cc(ccc31)N1CCOC(CC(NC(=O)C(C(C)C)N(C)C(=O)C3(F)CCN(C(=O)C#CC(C)(C)N(C)C)CC3)C(=O)N3CCCC(N3)C(=O)OCC(C)(C)C2)C1	66.9

###

Test system: 282377-053-R-J1-PDC complex spheroid viability
procedure_text: Anticancer human tumor 282377-053-R-J1-PDC cell line growth inhibition [RAS];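 further: spheroids exposed to agents for seven days before readout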
measurement_conditions: curve of first compound; second compound 0.3 µM
pIC50: −log10 of the molar value.
quantity_kind: pIC50

compound	recorded_result
CCc1c2c(nc3ccc(O)cc13)-c1cc3c(c(=O)n1C2)COC(=O)[C@]3(O)CC + CCn1c(-c2cc(N3CCN(C)CC3)cnc2C(C)OC)c2c3cc(ccc31)-c1csc(n1)CC(NC(=O)C1CC1C)C(=O)N1CCCC(N1)C(=O)OCC(C)(C)C2	< 6.52
CCN1CCN(Cc2ccc(Nc3ncc(F)c(-c4cc(F)c5nc(C)n(C(C)C)c5c4)n3)nc2)CC1 + CCn1c(-c2cc(N3CCN(C)CC3)cnc2C(C)OC)c2c3cc(ccc31)-c1csc(n1)CC(NC(=O)C1CC1C)C(=O)N1CCCC(N1)C(=O)OCC(C)(C)C2	< 6.00
CC(C)NCC(C(=O)N1CCN(c2ncnc3c2C(C)CC3O)CC1)c1ccc(Cl)cc1 (stereo not given) + CCn1c(-c2cccnc2C(C)OC)c2c3cc(ccc31)N1CCOC(CC(NC(=O)C(C(C)C)N(C)C(=O)C3(F)CCN(C(=O)C#CC(C)(C)N(C)C)CC3)C(=O)N3CCCC(N3)C(=O)OCC(C)(C)C2)C1	< 5.00
CC(C)n1nc(-c2ccc3oc(N)nc3c2)c2c(N)ncnc21 + CCn1c(-c2cc(N3CCN(C)CC3)cnc2C(C)OC)c2c3cc(ccc31)-c1csc(n1)CC(NC(=O)C1CC1C)C(=O)N1CCCC(N1)C(=O)OCC(C)(C)C2	< 7.00
O=C(c1ccc(F)c(F)c1Nc1ccc(I)cc1F)N1CC(O)([C@@H]2CCCCN2)C1 + CCn1c(-c2cc(N3CCN(C)CC3)cnc2C(C)OC)c2c3cc(ccc31)-c1csc(n1)CC(NC(=O)C1CC1C)C(=O)N1CCCC(N1)C(=O)OCC(C)(C)C2	7.84
CC(=O)OC12COC1CC(O)C1(C)C(=O)C(O)C3=C(C)C(OC(=O)C(O)C(NC(=O)OC(C)(C)C)c4ccccc4)CC(O)(C(OC(=O)c4ccccc4)C21)C3(C)C (stereo not given) + CCn1c(-c2cc(N3CCN(C)CC3)cnc2C(C)OC)c2c3cc(ccc31)-c1csc(n1)CC(NC(=O)C1CC1C)C(=O)N1CCCC(N1)C(=O)OCC(C)(C)C2	> 7.50
O=C(c1ccc(F)c(F)c1Nc1ccc(I)cc1F)N1CC(O)([C@@H]2CCCCN2)C1 + CCn1c(-c2cccnc2C(C)OC)c2c3cc(ccc31)N1CCOC(CC(NC(=O)C(C(C)C)N(C)C(=O)C3(F)CCN(C(=O)C#CC(C)(C)N(C)C)CC3)C(=O)N3CCCC(N3)C(=O)OCC(C)(C)C2)C1	7.13
CC1(O)CCCC1n1c(=O)c(C(F)F)cc2cnc(NC3CCN(S(C)(=O)=O)CC3)nc21 (stereo not given) + CCn1c(-c2cccnc2C(C)OC)c2c3cc(ccc31)N1CCOC(CC(NC(=O)C(C(C)C)N(C)C(=O)C3(F)CCN(C(=O)C#CC(C)(C)N(C)C)CC3)C(=O)N3CCCC(N3)C(=O)OCC(C)(C)C2)C1	5.16
CC(C)NCC(C(=O)N1CCN(c2ncnc3c2C(C)CC3O)CC1)c1ccc(Cl)cc1 (stereo not given) + CCn1c(-c2cc(N3CCN(C)CC3)cnc2C(C)OC)c2c3cc(ccc31)-c1csc(n1)CC(NC(=O)C1CC1C)C(=O)N1CCCC(N1)C(=O)OCC(C)(C)C2	< 5.00
C[C@@H](NC(=O)c1ncnc(N)c1Cl)c1ncc(C(=O)Nc2cc(C(F)(F)F)c(Cl)cn2)s1 + CCn1c(-c2cc(N3CCN(C)CC3)cnc2C(C)OC)c2c3cc(ccc31)-c1csc(n1)CC(NC(=O)C1CC1C)C(=O)N1CCCC(N1)C(=O)OCC(C)(C)C2	< 5.00
CCC(CC)c1cc(NC2CCC(N)C2)n2nccc2n1 (stereo not given) + CCn1c(-c2cccnc2C(C)OC)c2c3cc(ccc31)N1CCOC(CC(NC(=O)C(C(C)C)N(C)C(=O)C3(F)CCN(C(=O)C#CC(C)(C)N(C)C)CC3)C(=O)N3CCCC(N3)C(=O)OCC(C)(C)C2)C1	5.75
Cc1nc(N2CCC3(CC2)COC(C)C3N)c(CO)nc1Sc1ccnc(N)c1Cl (stereo not given) + CCn1c(-c2cccnc2C(C)OC)c2c3cc(ccc31)N1CCOC(CC(NC(=O)C(C(C)C)N(C)C(=O)C3(F)CCN(C(=O)C#CC(C)(C)N(C)C)CC3)C(=O)N3CCCC(N3)C(=O)OCC(C)(C)C2)C1	< 5.00
Cc1nc(N2CCC3(CC2)COC(C)C3N)c(CO)nc1Sc1ccnc(N)c1Cl (stereo not given) + CCn1c(-c2cc(N3CCN(C)CC3)cnc2C(C)OC)c2c3cc(ccc31)-c1csc(n1)CC(NC(=O)C1CC1C)C(=O)N1CCCC(N1)C(=O)OCC(C)(C)C2	< 5.00
CCN1CCN(Cc2ccc(Nc3ncc(F)c(-c4cc(F)c5nc(C)n(C(C)C)c5c4)n3)nc2)CC1 + CCn1c(-c2cccnc2C(C)OC)c2c3cc(ccc31)N1CCOC(CC(NC(=O)C(C(C)C)N(C)C(=O)C3(F)CCN(C(=O)C#CC(C)(C)N(C)C)CC3)C(=O)N3CCCC(N3)C(=O)OCC(C)(C)C2)C1	< 6.00
C=CC(=O)N1CCN(c2nc(OCC3CCCN3C)nc3c(F)c(-c4nc(N)cc(C)c4C(F)(F)F)c(Cl)cc23)C(C)C1 (stereo not given) + CCn1c(-c2cc(N3CCN(C)CC3)cnc2C(C)OC)c2c3cc(ccc31)-c1csc(n1)CC(NC(=O)C1CC1C)C(=O)N1CCCC(N1)C(=O)OCC(C)(C)C2	< 6.00
